System: HOP-92
Experiment: NCI tumour cell line growth inhibition, 48 h
Activity calls are given as the source filed them. No stated cut-off is given here; in the data, active = GI50 up to about 1.1 µM and inactive = higher.
Below, each of the compounds is paired with its reported GI50 value.
Reported property: GI50

INSERT INTO assay_data (compound, target_under_test, result) VALUES
  ('CCC/C(Cl)=N/OC(NC(=O)OCC)(C(F)(F)F)C(F)(F)F', 'HOP-92', '20.3 µM (inactive)'),
  ('O=C1Nc2cccc(Cl)c2/C1=C\c1c(Cl)nc2sccn12', 'HOP-92', '16.8 µM (inactive)'),
  ('O=NN(CCCl)C(=O)N[C@H]1CC[C@@H](O)CC1', 'HOP-92', '8.43 µM (inactive)'),
  ('Cc1cccc2ns[s+]c12', 'HOP-92', '> 100 µM (inactive)'),
  ('Oc1c(Cl)cc2cc1-c1cc(cc(Cl)c1O)CCc1c(cc(Cl)c(O)c1Cl)-c1cc(Cl)c(c(Cl)c1O)/C=C\2', 'HOP-92', '16.8 µM (inactive)'),
  ('Cc1ccc2nc(Cl)c(/C=N/N3C(=O)/C(=C/Cc4ccco4)N=C3c3ccccc3)cc2c1', 'HOP-92', '28.9 µM (inactive)'),
  ('CCN(CC)CC[S+]([O-])c1c2cc(OC)ccc2nc2ccc(OC)cc12 (stereo not given)', 'HOP-92', '3.28 µM (inactive)'),
  ('COc1ccc(COCCOCc2nc(C#N)c(N)o2)cc1', 'HOP-92', '> 100 µM (inactive)'),
  ('CCOC(=O)c1c(OCC)[nH]c(=O)c(C(c2ccc(F)cc2)c2c(O)c(C(=O)OCC)c(OCC)[nH]c2=O)c1O', 'HOP-92', '1.46 µM (inactive)'),
  ('C[C@@]12C[C@@H](c3ccccc3O1)N1CCSC1=N2', 'HOP-92', '> 100 µM (inactive)'),
  ('CC(O)C(O)C(O)C(/C=N\Nc1ccccc1)=N/Nc1ccccc1 (stereo not given)', 'HOP-92', '14.7 µM (inactive)'),
  ('O=C(/C=C/c1ccc(O)c(O)c1)Oc1ccccc1', 'HOP-92', '14.9 µM (inactive)'),
  ('COC(=O)N/N=C(\C(=O)Nc1cccc([N+](=O)[O-])c1)c1nc2ccc([N+](=O)[O-])cc2nc1O', 'HOP-92', '61.2 µM (inactive)'),
  ('CC(=O)OC1CC[C@@]2(C)C(CC[C@]3(C)C2CC=C2[C@@H]4C(C)[C@H](C)CCC4(C)CCC23C)[C@@]1(C)C(=O)O (stereo not given in full)', 'HOP-92', '21.2 µM (inactive)'),
  ('N#CC1=C2Sc3ccccc3N2[C@H](c2ccccc2)[C@H]2COC(=O)[C@@H]12', 'HOP-92', '> 100 µM (inactive)'),
  ('CC(=O)OCCC(O[Si](c1ccccc1)(c1ccccc1)C(C)(C)C)C(C)(C)O (stereo not given)', 'HOP-92', '24.6 µM (inactive)'),
  ('COc1cccc(N2C(Cl)C(=O)C2c2c[nH]c3ccccc23)c1 (stereo not given)', 'HOP-92', '> 100 µM (inactive)'),
  ('CCOc1ccc(NC(=O)C2=C(C)NC(C)=C(C(=O)Nc3ccc(OCC)cc3)C2c2ccc([N+](=O)[O-])cc2)cc1', 'HOP-92', '12.9 µM (inactive)'),
  ('Cc1ccc(NC(=O)CC/C(CC(=O)C(C)(C)C)=N\NC(=O)C[n+]2ccccc2)cc1C', 'HOP-92', '> 100 µM (inactive)'),
  ('COc1cc(OC)c(/C=N\Nc2nc3ccccc3c(=O)n2-c2ccccc2)c(OC)c1', 'HOP-92', '24.8 µM (inactive)');
